Experiment: Solubility of Compound (I) in water and solubilizing vehicles
Assay type: physicochemical
Conditions: 40% TWEEN 80 and 60% PEG 400, organic solvent or mixture, 40% TWEEN 80 and 60% PEG 400; read-out: solubility
QUANTITY MEASURED: solubility

[ask] Report solubility for O=C1c2cc(-c3ccc(OC(F)(F)F)cc3)ccc2OCCN1Cc1ncccn1 please.
[reply] > 100 mg/mL

###

Assay: Solubility of Compound (I) in water and solubilizing vehicles
Format: physicochemical
Details: safflower oil, oil or lipid, safflower oil; read-out: solubility in triglycerides
QUANTITY MEASURED: solubility

[ask] Report solubility for O=C1c2cc(-c3ccc(OC(F)(F)F)cc3)ccc2OCCN1Cc1ncccn1 please.
[reply] ~25 mg/mL

###

Test: Solubility of Compound (I) in water and solubilizing vehicles
Assay type: physicochemical
Conditions: water with 7% hydroxypropyl-β-cyclodextrin, aqueous with cosolvent or surfactant or cyclodextrin, water with 7% hydroxypropyl-β-cyclodextrin; read-out: solubility
QUANTITY MEASURED: solubility (µg/mL)
Reply numerically in µg/mL, unit not repeated.

[ask] Report solubility for O=C1c2cc(-c3ccc(OC(F)(F)F)cc3)ccc2OCCN1Cc1ncccn1 please.
[reply] 3200

###

Assay: Solubility of Compound (I) in water and solubilizing vehicles
Assay type: physicochemical
Conditions: water with 28% hydroxypropyl-β-cyclodextrin, aqueous with cosolvent or surfactant or cyclodextrin, water with 28% hydroxypropyl-β-cyclodextrin; read-out: solubility
QUANTITY MEASURED: solubility (mg/mL)
Reply numerically in mg/mL, unit not repeated.

[ask] Report solubility for O=C1c2cc(-c3ccc(OC(F)(F)F)cc3)ccc2OCCN1Cc1ncccn1 please.
[reply] 18

###

Assay: Solubility of Compound (I) in water and solubilizing vehicles
Type: physicochemical
Conditions: water; read-out: water solubility
QUANTITY MEASURED: solubility (µg/mL)
Reply numerically in µg/mL, unit not repeated.

[ask] Report solubility for O=C1c2cc(-c3ccc(OC(F)(F)F)cc3)ccc2OCCN1Cc1ncccn1 please.
[reply] 10

###

Test: Solubility of Compound (I) in water and solubilizing vehicles
Type: physicochemical
Settings: water with 12% Captisol, aqueous with cosolvent or surfactant or cyclodextrin, water with 12% Captisol; read-out: solubility
QUANTITY MEASURED: solubility (µg/mL)
Reply numerically in µg/mL, unit not repeated.

[ask] Report solubility for O=C1c2cc(-c3ccc(OC(F)(F)F)cc3)ccc2OCCN1Cc1ncccn1 [Compound (I)] please.
[reply] 3900

###

Assay: Solubility of Compound (I) in water and solubilizing vehicles
Type: physicochemical
Settings: oil-in-water emulsion with 20% oil, oil or lipid, oil-in-water emulsion with 20% oil; read-out: solubility
QUANTITY MEASURED: solubility

[ask] Report solubility for O=C1c2cc(-c3ccc(OC(F)(F)F)cc3)ccc2OCCN1Cc1ncccn1 please.
[reply] ≤ 5000 µg/mL
